test system: MS2 coat protein; assay: apparent KD of MS2 coat protein; higher = weaker reporter binding; conditions: Eterna round: R107; input ligand: none
Class boundaries, taken from values of apparent KD of MS2 coat protein, are as follows: bin 0 (below 20 nM), bin 1 (20 nM to below 100 nM), bin 2 (100 nM or more)

Kindly identify the class of UCGCCCGGGUCGGCCGCCACUGAGGUGAUGUGACAUGAGGAUCACCCAUGUUGUCAUGUGGCACAUAGGACCGGGACCCGGGCGA [Exclusion - Tryptophan B Attempt #3 (HarryS)] .
bin 1

Kindly identify the class of AAAGAUCGGAAACGAUCGGCGGCUUGGGCGCGAGGACCGGUACGGCCGCCACUCGGGCAACAUGAGGAUCACCCAUGUUCCUCAU [ETA NP+V+V2 #17] .
bin 2

Kindly identify the class of ACAUGAGACAUGGAUACCAGCGACAUGAGGAUCACCCAUGUAUGAGGAUCACCCAUGUUAUGCCCUUGGCAGCCACAAACAUGAG [.PLMULLINP] .
bin 0

Kindly identify the class of AGAGUCAGACAAAAGUCUGGCUCAGCCGAAGGAGCGUCCGAAAGGACAGGUAGGUCGCGGUUACCUGAGGAUCACCCGGGUUCCU [ArgAS 25 #OpenEnded #AlternativeMS2] .
bin 2

Kindly identify the class of UGCCCUGCGAGCGCUCGCAGGGCAGCGGAUACCAGCGAGGUCCAUCGCCCUUGGCAGCCGAACAUGAGGAUCACCCAUGUCGGUG [Same State - Theophylline A Attempt #9 (HarryS)] .
bin 0

Kindly identify the class of AAUUCCUCACAUGAGGAUCACCCAUGUGAAGGAGCGCGGAAUAACGCAGGUAGGUCGCACAUGGAAACCGCUGCGAAAGCAGCAA [MAT - Exclusion Arginine A - Mod of Eli - D26] .
bin 0

Kindly identify the class of ACAUGAAGAACAGCGGUGGGCGCGCUCGAUACCAGUACUUUGAAAUACCCUUGGCAGCGACAUGAGGAUCACCCAUGUGAGAUGA [XTheo A #3] .
bin 0

Kindly identify the class of CAUAUAUAUAGAAGGAGCGUCGAAAAUGGGUAAACAUGAGGAUCACCCAUGUAAAGGGAACGACAGGUAGGUCGCUAUAUAUAUG [AstromonsSSArgB#3] .
bin 2

Kindly identify the class of UGUAUGUGAUCUGAUACCAGAGUGACGCGAAAGCGAUAACCUGAGGAUCACCCUGGUAAACUCCCUUGGCAGCAGAUCGCAUACU .
bin 1
